Ref: patent US20220281976A1

- ASSAYED_TARGET: T1, human CD33 Fc fusion protein (human, UniProt P20138 18-259)
- T1 construct: also called hCD33-Fc; human CD33/Fc chimera (R&D Systems)
- T1 sequence (P20138 18-259 limits assumed): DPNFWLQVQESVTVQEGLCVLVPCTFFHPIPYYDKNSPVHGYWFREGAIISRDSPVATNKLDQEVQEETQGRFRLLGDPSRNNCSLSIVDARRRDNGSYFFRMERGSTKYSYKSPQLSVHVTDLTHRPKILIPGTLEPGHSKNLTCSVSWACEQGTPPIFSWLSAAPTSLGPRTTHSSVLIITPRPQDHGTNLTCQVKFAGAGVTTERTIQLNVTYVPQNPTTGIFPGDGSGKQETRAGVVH
- TEST_METHOD_NOTES: RBC adhesion to plate-bound CD33-Fc; antibody 0.5 ug/ml;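 also: Plate-coated CD33-Fc preincubated 1 h with antibody, then red blood cells added for 1 h at room temperature, adherent cells lysed and quantified via peroxidase activity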
ENDPOINT: Percent RBC Binding to CD33

**Q:** Query (binder): C-28 (antibody, V domains shown, human IgG1) VH: EVQLVESGGGLVQPGGSLRLSCAASGFTFSSYWMSWVRQAPGKGLEWVANINQDGSEKYYVDSVKGRFTISRDNAKNSLYLQMNSLRAEDTAVYYCAREGRRTMNAFDIWGQGTMVTVSS VL: DIQMTQSPSSLSASVGDRVTITCRASQSISSYLNWYQQKPGKAPKLLIYGASSLQSGVPSRFSGSGSGTDFTLTISSLQPEDFATYYCQQGYDVPITFGGGTKVEIK ; field requested: Percent RBC Binding to CD33
**A:** 14%

**Q:** Query (binder): C-64 (antibody, V domains shown, human IgG1) VH: QVQLVQSGAEVKKPGSSVKVSCKASGGTFSSLAISWVRQAPGQGLEWMGGIIPIFGTANYAQKFQGRVTITADESTSTAYMELSSLRSEDTAVYYCARGTFYSDELFDYWGQGTLVTVSS VL: DIQMTQSPSSVSASVGDRVTITCRASQGISSWLAWYQQKPGKAPKLLIYAASSLQSGVPSRFSGSGSGTDFTLTISSLQPEDFATYYCQQENSYPLTFGGGTKVEIK ; field requested: Percent RBC Binding to CD33
**A:** 93.5%

**Q:** Query (binder): C-35 (antibody, V domains shown, human IgG1) VH: QLQLQESGPGLVKPSETLSLTCTVSGGSISSSSYAWGWIRQPPGKGLEWIGNIYYSGSTYYNPSLKSRVTISVDTSKNQFSLKLSSVTAADTAVYYCARAGYRSPSGFDYWGQGTLVTVSS VL: DIQMTQSPSSVSASVGDRVTITCRASQGISSWLAWYQQKPGKAPKLLIYAASNLQSGVPSRFSGSGSGTDFTLTISSLQPEDFATYYCQQGNAHPTFGGGTKVEIK ; field requested: Percent RBC Binding to CD33
**A:** 16.6%
